- System: Staphylococcus sp.
- assayMethodText: In vitro antibacterial evaluation: minimum inhibitory concentration (MIC), broth dilution method
- Format: cell-based
- details: Staphylococcus haemolyticus (GC 4546); 18 hours at 35° C.
Decide using MIC Staphylococcus haemolyticus (GC 4546) alone. Strictly below 4 µg/mL: t. Equal to or above 4 µg/mL: f.

I wonder whether CC(c1ccccc1)C1NC(=O)CNC(=O)C(CO)NC(=O)C(C(O)C2CNC(=N)N2C2OC(CO)C(O)C(O)C2O)NC(=O)C(C(O)C2CNC(=N)N2)NC(=O)C(Cc2ccc(OC3OC(CO)C(OC4OC(CO)C(OCC=Cc5ccc(N(C)C)cc5)C(O)C4O)C(O)C3O)cc2)NC1=O (stereo not shown) [Example 243a] has MIC Staphylococcus haemolyticus (GC 4546) below 4 µg/mL. Can you tell?
f

I wonder whether COc1ccc2cc(COC3C(CO)OC(OC4C(CO)OC(Oc5ccc(CC6NC(=O)C(C(C)c7ccccc7)NC(=O)CNC(=O)C(CO)NC(=O)C(CC7CNC(=N)N7C7OC(CO)C(O)C(O)C7O)NC(=O)C(CC7CNC(=N)N7)NC6=O)cc5)C(O)C4O)C(O)C3O)ccc2c1 (stereo not shown) [Example 245a] has MIC Staphylococcus haemolyticus (GC 4546) below 4 µg/mL. Can you tell?
t

I wonder whether CC(C)C(=O)OCC1OC(OC2C(CO)OC(Oc3ccc(CC4NC(=O)C(Cc5ccccc5)NC(=O)CNC(=O)C(CO)NC(=O)C(C(O)C5CNC(=N)N5C5OC(CO)C(O)C(O)C5O)NC(=O)C(C(O)C5CNC(=N)N5)NC4=O)cc3)C(O)C2O)C(O)C(O)C1O (stereo not shown) [Example 283a] has MIC Staphylococcus haemolyticus (GC 4546) below 4 µg/mL. Can you tell?
f

I wonder whether CCCCCNC(=O)OCC1OC(OC2C(CO)OC(Oc3ccc(CC4NC(=O)C(C(C)c5ccccc5)NC(=O)CNC(=O)C(CO)NC(=O)C(C(O)C5CNC(=N)N5C5OC(CO)C(O)C(O)C5O)NC(=O)C(C(O)C5CNC(=N)N5)NC4=O)cc3)C(O)C2O)C(O)C(O)C1O (stereo not shown) [Example 251b] has MIC Staphylococcus haemolyticus (GC 4546) below 4 µg/mL. Can you tell?
f

I wonder whether CCOc1cc(COCC2OC(OC3C(CO)OC(Oc4ccc(CC5NC(=O)C(C(C)c6ccccc6)NC(=O)CNC(=O)C(CO)NC(=O)C(C(O)C6CNC(=N)N6C6OC(CO)C(O)C(O)C6O)NC(=O)C(C(O)C6CNC(=N)N6)NC5=O)cc4)C(O)C3O)C(O)C(O)C2O)ccc1OC (stereo not shown) [Example 238] has MIC Staphylococcus haemolyticus (GC 4546) below 4 µg/mL. Can you tell?
t

Attention now turns to another entry.
I wonder whether CC(C)CCC(=O)OC1C(OC2C(CO)OC(Oc3ccc(CC4NC(=O)C(C(C)c5ccccc5)NC(=O)CNC(=O)C(CO)NC(=O)C(C(O)C5CNC(=N)N5C5OC(CO)C(O)C(O)C5O)NC(=O)C(C(O)C5CNC(=N)N5)NC4=O)cc3)C(O)C2O)OC(CO)C(O)C1O (stereo not shown) [Example 270a] has MIC Staphylococcus haemolyticus (GC 4546) below 4 µg/mL. Can you tell?
t
